Assay target: mAChR M4 (Homo sapiens, UniProt P08173)
Construct: expressed in transfected cells; host or cells: CHO-K1 cells stably transfected with M4 cDNA and chimeric G-protein Gqi5
Sequence (P08173 whole entry): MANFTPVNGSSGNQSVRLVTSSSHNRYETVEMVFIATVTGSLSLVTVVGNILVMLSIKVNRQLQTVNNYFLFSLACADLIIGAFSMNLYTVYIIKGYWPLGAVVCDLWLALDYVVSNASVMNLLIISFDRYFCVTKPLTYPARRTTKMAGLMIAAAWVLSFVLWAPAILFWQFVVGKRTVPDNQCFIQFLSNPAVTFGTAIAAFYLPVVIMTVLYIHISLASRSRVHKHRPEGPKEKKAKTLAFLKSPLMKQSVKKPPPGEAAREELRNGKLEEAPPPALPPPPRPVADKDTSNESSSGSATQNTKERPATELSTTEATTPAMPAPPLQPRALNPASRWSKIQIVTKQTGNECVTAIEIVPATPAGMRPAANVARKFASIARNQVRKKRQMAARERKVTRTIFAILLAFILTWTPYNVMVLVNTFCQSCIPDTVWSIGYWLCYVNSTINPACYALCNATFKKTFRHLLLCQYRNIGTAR
Assay name: mAChR M4 cell-based functional assay (calcium mobilization, potentiation of EC20 acetylcholine response)
Run parameters: % ACh maximum at 30 μM
Recorded endpoint: Emax at 30 µM (%)

P: Cc1nnc2sc(C(=O)N3C[C@@H]4C[C@@H]3CN4C(=O)c3ccccc3)c(N)c2c1C [Example B263]
Q: Cc1nnc2sc(C(=O)NCc3ccc(C(C)(O)C(F)(F)F)cc3)c(N)c2c1C (single isomer, unassigned) [Example B186]
Which value of Emax at 30 µM is numerically greater: that of P or that of Q ? // respond with label for picked entry Q
